assay: Peptide stability in simulated intestinal fluid (SIF); assay type: in vitro ADME; conditions: pig, 37 °C, porcine pancreatin, pH 6.8, 1 h
*1 amine or outer side, *2 acyl side, *3 side chain or, on linkers, in order; H or OH if unused. Where a SMILES comes first, the peptide text is derived from it. Bridges are numbered along the chain shown (N, C = ends). [ ]: non-standard residue; d: D form. 2Nal = N[C@@H](Cc1ccc2ccccc2c1)C(=O)O; AEF = NCCOc1ccc(C[C@H](N)C(=O)O)cc1; 3Pal = N[C@@H](Cc1cccnc1)C(=O)O; αMeL = CC(C)C[C@](C)(N)C(=O)O; CH2COCH2 = O=C(C[*:1])C[*:2]; 3Amb = NCc1cccc(C(=O)O)c1
Mark YES only for remaining at 1 h, 10 µM values smaller than 90%; exact matches and larger values are NO.

| molecule | discrete_label |
| --- | --- |
| CNC(=O)[C@H](Cc1cccnc1)NC(=O)[C@H](CCN)NC(=O)[C@@H]1CCC(=O)N[C@H]2CCCCNC(=O)CC[C@H](NC(=O)[C@H](CCC(N)=O)NC(=O)[C@H](Cc3c[nH]c4ccccc34)NC(=O)CNC2=O)C(=O)N[C@@H](Cc2ccc(OCCN)cc2)C(=O)N[C@@H](Cc2ccc3ccccc3c2)C(=O)N[C@@](C)(CC(C)C)C(=O)N1 [Compound 104] | NO |
| CNC(=O)[C@H](Cc1cccnc1)NC(=O)[C@H](CCN)NC(=O)[C@@H]1CCC(=O)NCCCC[C@@H]2NC(=O)CC[C@H](NC(=O)[C@H](CCC(N)=O)NC(=O)[C@H](Cc3c[nH]c4ccccc34)NC(=O)CNC2=O)C(=O)N[C@@H](Cc2ccc(OCCN)cc2)C(=O)N[C@@H](Cc2ccc3ccccc3c2)C(=O)N[C@@](C)(CC(C)C)C(=O)N1 [Compound 44] | YES |
| COc1ccc(C[C@@H]2NC(=O)[C@@H]3CCC(=O)N[C@@H](CCCCNC(=O)CC[C@@H](C(=O)N[C@@H](CCCCNC(=O)c4cccnc4)C(N)=O)NC(=O)[C@](C)(CC(C)C)NC(=O)[C@H](Cc4ccc5ccccc5c4)NC2=O)C(=O)N[C@@H]([C@@H](C)O)C(=O)N[C@@H](C(C)C)C(=O)N[C@@H](Cc2c[nH]c4ccccc24)C(=O)N[C@@H](CCC(N)=O)C(=O)N3)cc1 [Compound 50] | NO |
| CC(C)C[C@]1(C)NC(=O)[C@H](Cc2ccc3ccccc3c2)NC(=O)[C@H](Cc2ccc(OCCN)cc2)NC(=O)[C@@H]2CSCC(=O)CSC[C@H](NC(=O)[C@H](CO)NC(=O)c3cccc(c3)CNC(=O)CC[C@@H](C(=O)N[C@@H](CCCNC(=N)N)C(=O)N[C@@H](Cc3cccnc3)C(N)=O)NC1=O)C(=O)N[C@@H](Cc1c[nH]c3ccccc13)C(=O)N[C@@H](CCC(N)=O)C(=O)N2 [Ref 78, reference compound] ([3Amb]SCWQC[AEF][2Nal][αMeL]ER[3Pal]-NH2; linker 3-6 via CH2COCH2; lactam N-10) | YES |

* * *

Assay: Peptide stability in simulated intestinal fluid (SIF)
Assay type: in vitro ADME
Details: pig, SAR tables, % peptide remaining, 37 °C, porcine pancreatin, pH 6.8, 4 h, read-out: SIF (% after 4 h)
Procedure: SGF was prepared by dissolving sodium chloride (0.2 g) in 50 mL of water. A volume of 0.7 mL of 10 M HCl was added to adjust the pH of the solution to 1.2 and the volume made up to 100 mL with water. […] SIF was prepared by dissolving monobasic potassium phosphate (0.68 g) in 50 mL of water and adjusting the pH to 6.8 with 1 M NaOH. […] The incubation was performed at 37 °C with gentle shaking. […] Percent remaining at each timepoint was calculated relative to timepoint zero based on absolute peak areas. […]
Known remaining at 4 h, 10 µM of a selection of molecules
metric_name: remaining at 4 h, 10 µM (%)

| structure_notation | units | value_reported |
| --- | --- | --- |
| CNC(=O)[C@H](Cc1cccnc1)NC(=O)[C@H](CCN)NC(=O)[C@@H]1CCC(=O)NCCCC[C@@H]2NC(=O)CC[C@H](NC(=O)[C@H](CCC(N)=O)NC(=O)[C@H](Cc3c[nH]c4ccccc34)NC(=O)CCNC2=O)C(=O)N[C@@H](Cc2ccc(OCCN)cc2)C(=O)N[C@@H](Cc2ccc3ccccc3c2)C(=O)N[C@@](C)(CC(C)C)C(=O)N1 | % | 87 |
| CC[C@H](C)[C@@H]1NC(=O)[C@@H]2CCCCNC(=O)CC[C@@H](C(=O)N[C@@H](CCN)C(=O)N[C@@H](Cc3cccnc3)C(=O)NC)NC(=O)[C@](C)(CC(C)C)NC(=O)[C@H](Cc3ccc4ccccc4c3)NC(=O)[C@H](Cc3ccc(OCCN)cc3)NC(=O)[C@H](CCC(=O)N2)NC(=O)[C@H](CCC(N)=O)NC(=O)[C@H](Cc2c[nH]c3ccccc23)NC(=O)[C@H](C(C)C)NC1=O | % | 71 |
